# ASSAY_EXPLANATION: protein stability index of a GFP-peptide fusion (yeast GPS) (PSI 1-4); higher = more stable; sorted into four equal gates, so the index is relative within each strain
# EXPERIMENTAL_CONDITIONS: ubr1∆
VALUE_KIND: protein stability index
Give the figure by itself; no unit, no explanation.

Recorded protein stability index of KIMVAEWYLSHLCSGIL [SRB8] , please.
1.47

Recorded protein stability index of VAFDNINTHIETLAYNS [SNF2] , please.
1.99

Recorded protein stability index of IYLLFQSSGKLKEYLDL [YDL116W/NUP84] , please.
2.6

Recorded protein stability index of RNEEILRDIGECENEIK [SMC2] , please.
3.23

Recorded protein stability index of VPKLESSRTKFWSFLDS [YJL039C/NUP192] , please.
1.44

Recorded protein stability index of LKEQELVLYDAENDVIE [BRR2] , please.
2.74

Recorded protein stability index of DQLDSEAASITRKSLNN [ECM29] , please.
2.95

Recorded protein stability index of VSMVKRAIDSLIQKGYL [CDC53] , please.
1.74

Recorded protein stability index of EVRRAAMLNLINDNNTR [YCG1] , please.
3.13

Recorded protein stability index of FQHADNSSMRYGYWFDC [AAR2] , please.
3.14

Recorded protein stability index of QISIIDIWSISKKRQAE [YML031W/NDC1] , please.
2.79

Recorded protein stability index of NELLEMVGLASGNDSMA [BRR2] , please.
2.32

Recorded protein stability index of SKLSQEFLYPHLNFPNV [SNF12] , please.
3.02

Recorded protein stability index of DAITVKDVKAWAGKRLW [COR1] , please.
2.37

Recorded protein stability index of GYILEGEELAFYLRRLT [RPS8A] , please.
1.31

Recorded protein stability index of DVKKPFSFGTSQPNNTP [YLR335W/NUP2] , please.
2.15

Recorded protein stability index of LVEKVYARFKNDFFPGE [ITC1] , please.
3.25

Recorded protein stability index of NVNMTVNTMGTGGQTID [MED6] , please.
3.37

Recorded protein stability index of QLAVANEIIRSLSDEVM [SIR4] , please.
3.21

Recorded protein stability index of AKCNSLLQLKYFSNKTS [POP5] , please.
2.2

Recorded protein stability index of RNAQAQREAAAEYAQLL [RPS6A] , please.
3.2

Recorded protein stability index of NVFGTLQRHSGISSTLV [YLR018C/POM34] , please.
3.25

Recorded protein stability index of SKLLYDDVTCDKLSVSE [SIN4] , please.
3.23

Recorded protein stability index of SASFSLKNGDKPHLLKF [RPL6B] , please.
3.42

Recorded protein stability index of DIPTIADEHFWADNYER [BRN1] , please.
3.22

Recorded protein stability index of KFFRVKYENKISTVIEV [SMC3] , please.
1.12

Recorded protein stability index of AKILSQAPTELELQVAQ [RPS7A] , please.
2.5

Recorded protein stability index of RNDKTLELMDSKKTGQF [POP1] , please.
3.37

Recorded protein stability index of KQGRIKNATEELLRLAN [CSN12] , please.
3.36

Recorded protein stability index of RNHKHALHGTAKALAAA [RPL29] , please.
2.65

Recorded protein stability index of KKAKLVLIANDVDPIEL [RPL8A] , please.
2.83

Recorded protein stability index of RPKPVSPPCYIIDHIPG [SNF5] , please.
2.25

Recorded protein stability index of DPGRYNKVCRIEAASTT [RPB8] , please.
2.73

Recorded protein stability index of MVGLASGNDSMAGKVLI [BRR2] , please.
3.47

Recorded protein stability index of LSEAWRCWKANIPWDVP [PRP8] , please.
3.42

Recorded protein stability index of GVFDPASYSKYLIDHIK [RPL22B] , please.
2.9

Recorded protein stability index of PFGAKSTKSNKAKNPLT [RPL8B] , please.
2.93

Recorded protein stability index of LVPTASFFIASQLQEQF [FAS1] , please.
1.86

Recorded protein stability index of LDKFTDGGLFTLFVRDQ [QCR2] , please.
3.31

Recorded protein stability index of EDTPANDSSATRSWRPP [RPB8] , please.
2.95

Recorded protein stability index of LRFPEHTSSGSVSFKVF [BRR2] , please.
1.57

Recorded protein stability index of REMRRKVYAQLLESYKT [RPN7] , please.
2.7

Recorded protein stability index of ASRDKTLISWKLTGDDQ [ASC1] , please.
1.61

Recorded protein stability index of IVPLTEGDIQVLKSYGA [RPT1] , please.
2.99

Recorded protein stability index of NKTNNEDLFDDYPSTSL [NUT1] , please.
1.79

Recorded protein stability index of DAHGVTQARVITGNKIM [RPS13] , please.
1.56

Recorded protein stability index of NTLIPESSLTISLYFND [ECM29] , please.
2.42

Recorded protein stability index of LANFVAKGFYHTPMVNF [SRB8] , please.
2.32

Recorded protein stability index of VSYMMPSLYRLLNILIT [SRB8] , please.
1.3

Recorded protein stability index of DPSMDPELAMALRLSME [RPN10] , please.
2.96

Recorded protein stability index of EAKERYTDRDQDEVNKG [NNF1] , please.
3.74

Recorded protein stability index of HFPINVNIVEKDGAKFI [RPL9A] , please.
2.5

Recorded protein stability index of VKEIVLPLFYDLLNAAS [IRR1] , please.
2.69

Recorded protein stability index of VSVEGVNVEKFNVEYFA [RPL6A] , please.
3.16

Recorded protein stability index of DYVNKTNSHLPAGKQVE [FAS1] , please.
3.08

Recorded protein stability index of DLKLLFNTEAEQTVSAV [RGR1] , please.
3.19

Recorded protein stability index of DWIRFVSTKTNEYRLAF [RPL22A] , please.
2.62

Recorded protein stability index of DMKEYDSDKGSKLNELK [SMC2] , please.
3.29

Recorded protein stability index of QALRVLRLKPGRKYTTL [RPL16B] , please.
2.73

Recorded protein stability index of KIKDVQQQIESNEEQRN [SMC3] , please.
2.85

====

# ASSAY_EXPLANATION: protein stability index of a GFP-peptide fusion (yeast GPS) (PSI 1-4); higher = more stable; sorted into four equal gates, so the index is relative within each strain
# EXPERIMENTAL_CONDITIONS: doa10∆
VALUE_KIND: protein stability index
Give the figure by itself; no unit, no explanation.

Recorded protein stability index of MVNIGLHNLNEYQIVYY [RGR1] , please.
1.65

Recorded protein stability index of KVEKGVNIEPFNIDDEI [LIN1] , please.
3.52

Recorded protein stability index of FNLLILSLNKRIYDREP [YCG1] , please.
2.75

Recorded protein stability index of NGGKFSKSNLIHNYDSK [RGR1] , please.
2.4

Recorded protein stability index of SAFKFIHTQLSEIKQQI [YJL039C/NUP192] , please.
2.33

Recorded protein stability index of RMPMDFKGVIVKIVDKD [PRE1] , please.
2.25

Recorded protein stability index of LRLVDDDENNPSHYPHP [RRP6] , please.
3.11

====

# ASSAY_EXPLANATION: protein stability index of a GFP-peptide fusion (yeast GPS) (PSI 1-4); higher = more stable; sorted into four equal gates, so the index is relative within each strain
# EXPERIMENTAL_CONDITIONS: ubr1∆
Outcome label depends on protein stability index relative to 3: at/above gives YES, below gives NO.

State whether the measured protein stability index reaches 3, counting equality as reaching it, for RQNRNQEIFDANVQRLK [RPL13A]
YES

State whether the measured protein stability index reaches 3, counting equality as reaching it, for TREDVSPHYNSQKQTLI [SSN3]
NO

State whether the measured protein stability index reaches 3, counting equality as reaching it, for SVFMPLIFIACNDEDKD [ECM29]
NO

State whether the measured protein stability index reaches 3, counting equality as reaching it, for EAESQLRAAQQQWGNDF [FAS2]
YES

State whether the measured protein stability index reaches 3, counting equality as reaching it, for HKKKRSNAAGADDAISM [SRB8]
NO

State whether the measured protein stability index reaches 3, counting equality as reaching it, for ENFSNGISLVMEIVANA [MED1]
NO

State whether the measured protein stability index reaches 3, counting equality as reaching it, for AVATPKAEVTQLSNGIV [COR1]
NO

State whether the measured protein stability index reaches 3, counting equality as reaching it, for SCSFFAKLSDTLIIDQV [NUT1]
NO

State whether the measured protein stability index reaches 3, counting equality as reaching it, for ELTDKLSALNSEISSLK [SMC1]
NO

State whether the measured protein stability index reaches 3, counting equality as reaching it, for KVDGKVRTDTTYPAGFM [RPS4A]
YES

State whether the measured protein stability index reaches 3, counting equality as reaching it, for HYGQTLGKKKNVKEEET [RPS8A]
NO

State whether the measured protein stability index reaches 3, counting equality as reaching it, for IRQAIAKGLVAYHQKYV [RPS16A]
NO

State whether the measured protein stability index reaches 3, counting equality as reaching it, for NEKKTETNAKPFSFSSA [YLR335W/NUP2]
YES
